# STUDY_SYSTEM: GTPase KRas [G12D,C118A] (Homo sapiens, UniProt P01116, C118A/G12D)
# Sequence (P01116 whole entry G12D/C118A, looked up): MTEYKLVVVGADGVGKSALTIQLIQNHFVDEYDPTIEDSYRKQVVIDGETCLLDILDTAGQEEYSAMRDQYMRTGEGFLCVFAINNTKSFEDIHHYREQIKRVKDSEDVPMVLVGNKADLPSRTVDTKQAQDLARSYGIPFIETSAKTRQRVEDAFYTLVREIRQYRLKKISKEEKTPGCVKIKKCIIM
# ASSAY_DETAILS: Coupled Nucleotide Exchange Assay
EXPERIMENTAL_ENDPOINT: pIC50
Scale: pIC50 equals -log10([C]), with [C] in mol/L.

Record excerpt, results attached:
- Fc1c2ncc3c(nc(OC[C@@]45CCCN4C[C@H](F)C5)nc13)N1CCC[C@@H](CSCCCCc3c(Cl)cc4[nH]ncc4c3-2)C1: 8.70
- CN(C)CC1(COc2nc3c4cnc(c(F)c4n2)-c2c(c(Cl)cc4[nH]ncc24)CCCOC(=O)O[C@@H]2COCCN3C2)CC1: 8.70
- Cc1cc2[nH]ncc2c2c1CCCOC(=O)O[C@@H]1COCCN(C1)c1nc(OC[C@@]34CCCN3C[C@H](F)C4)nc3c(F)c-2c(F)cc13: 8.70
- Cc1cc2[nH]ncc2c2c1CCCOC(=O)O[C@@H]1COCCN(C1)c1nc(OC[C@@]34CCCN3C[C@H](F)C4)nc3c(F)c-2ccc13: 8.70

Turning now to a further compound:
Case Fc1c2ncc3c(nc(OC[C@@]45CCCN4C[C@H](F)C5)nc13)N1CCOC[C@H](C1)c1noc(n1)CCCc1c(Cl)cc3[nH]ncc3c1-2 , GTPase KRas [G12D,C118A] (Homo sapiens, UniProt P01116, C118A/G12D), pIC50 recorded as 9.00
